target: full-length FLAG-tagged B-Raf(V600E) (Homo sapiens (Human), UniProt P15056, V600E); assay: BRAF V600E enzyme assay (TR-FRET competitive displacement); type: binding; conditions: averaged IC50; TR-FRET tracer displacement, 60 min
Sequence (P15056 whole entry V600E): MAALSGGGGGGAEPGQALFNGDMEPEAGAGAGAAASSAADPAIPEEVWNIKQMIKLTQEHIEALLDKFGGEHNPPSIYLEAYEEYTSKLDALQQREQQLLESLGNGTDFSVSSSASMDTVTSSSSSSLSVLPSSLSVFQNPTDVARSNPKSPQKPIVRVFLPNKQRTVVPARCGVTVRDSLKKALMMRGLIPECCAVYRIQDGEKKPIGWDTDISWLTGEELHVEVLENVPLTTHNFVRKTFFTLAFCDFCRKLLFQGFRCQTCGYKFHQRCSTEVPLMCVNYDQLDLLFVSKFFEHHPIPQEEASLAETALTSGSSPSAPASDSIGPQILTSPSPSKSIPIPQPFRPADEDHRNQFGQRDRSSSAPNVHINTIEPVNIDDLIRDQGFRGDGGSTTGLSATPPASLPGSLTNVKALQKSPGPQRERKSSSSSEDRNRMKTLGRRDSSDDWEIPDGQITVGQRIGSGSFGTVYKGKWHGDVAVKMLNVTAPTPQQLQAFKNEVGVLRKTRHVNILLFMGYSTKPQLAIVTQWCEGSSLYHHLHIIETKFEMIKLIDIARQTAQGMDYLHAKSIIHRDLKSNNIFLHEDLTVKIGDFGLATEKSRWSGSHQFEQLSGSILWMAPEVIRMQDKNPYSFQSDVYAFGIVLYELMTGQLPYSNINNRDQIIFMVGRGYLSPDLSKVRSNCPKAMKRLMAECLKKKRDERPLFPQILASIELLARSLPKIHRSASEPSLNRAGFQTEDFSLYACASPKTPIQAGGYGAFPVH
Structures can show the parent of a compound that is named as a salt.
Measured IC50, listed per entry.

COMPOUND	IC50 / nM
Cc1c(Nc2c(F)ccc(NS(=O)(=O)N3CC(COC(F)F)C3)c2Cl)ccc2ncn(C)c(=O)c12 [Example 137, trifluoroacetate]	8
Cn1cnc2ccc(Nc3c(F)ccc(NS(=O)(=O)N4CC[C@H](F)C4)c3Cl)c(Cl)c2c1=O	4
Cn1cnc2ccc(Oc3c(F)ccc(NS(=O)(=O)N4CCCC4)c3Cl)c(Cl)c2c1=O	3
Cn1cnc2ccc(Oc3c(F)ccc(NS(=O)(=O)N4CC(F)C4)c3Cl)c(F)c2c1=O	2
CO[C@H]1CN(S(=O)(=O)Nc2ccc(F)c(Nc3ccc4ncn(C)c(=O)c4c3C)c2Cl)C[C@@H]1F (relative stereo)	114
Cc1c(Nc2c(F)ccc(NS(=O)(=O)N3CC(F)C3)c2Cl)ccc2ncn(C)c(=O)c12	5
Cn1cnc2ccc(Oc3c(F)ccc(NS(=O)(=O)N4CC5CC4C5)c3Cl)c(F)c2c1=O	2

----------
Measured efflux ratio at 2 h, 1 µM, listed per entry.
molecular target: BCRP (Homo sapiens (Human)); test: BCRP MDCKII permeability assay: efflux ratio; format: in vitro ADME; conditions: dog
Sequence (Q9UNQ0 whole entry): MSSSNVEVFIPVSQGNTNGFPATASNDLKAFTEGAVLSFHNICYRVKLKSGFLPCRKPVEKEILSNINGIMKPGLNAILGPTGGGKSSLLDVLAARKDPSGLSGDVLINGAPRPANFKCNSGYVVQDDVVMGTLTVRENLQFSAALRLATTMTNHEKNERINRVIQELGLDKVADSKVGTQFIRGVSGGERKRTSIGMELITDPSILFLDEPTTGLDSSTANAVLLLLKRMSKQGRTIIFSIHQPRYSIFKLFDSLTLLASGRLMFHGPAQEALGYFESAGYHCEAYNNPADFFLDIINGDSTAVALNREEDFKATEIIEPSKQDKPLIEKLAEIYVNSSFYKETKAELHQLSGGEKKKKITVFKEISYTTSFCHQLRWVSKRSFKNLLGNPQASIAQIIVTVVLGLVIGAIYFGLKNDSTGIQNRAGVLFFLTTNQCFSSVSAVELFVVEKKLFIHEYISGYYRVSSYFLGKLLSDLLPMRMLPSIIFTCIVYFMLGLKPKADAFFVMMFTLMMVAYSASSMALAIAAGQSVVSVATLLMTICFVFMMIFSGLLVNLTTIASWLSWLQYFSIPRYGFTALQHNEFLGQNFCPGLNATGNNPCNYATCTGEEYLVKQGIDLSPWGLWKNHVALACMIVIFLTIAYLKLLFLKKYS
Where a name gives a salt, the structure may show the parent alone.

COMPOUND	efflux ratio at 2 h, 1 µM
Cc1c(Nc2c(F)ccc(NS(=O)(=O)N3CC4CC4(C)C3)c2Cl)ccc2ncn(C)c(=O)c12 (stereo not drawn) [Example 88]	0.6
[2H]C([2H])([2H])O[C@@H]1CCN(S(=O)(=O)Nc2ccc(F)c(Nc3ccc4ncn(C)c(=O)c4c3F)c2Cl)C1 [Example 54, trifluoroacetate]	3
Cc1c(Nc2c(F)ccc(NS(=O)(=O)N3C[C@H](F)[C@@H](F)C3)c2Cl)ccc2ncn(C)c(=O)c12 (relative stereo) [Example 85]	0.9

----------
biological target: full-length FLAG-tagged B-Raf(V600E) (Homo sapiens (Human), UniProt P15056, V600E); assay: BRAF V600E enzyme assay (TR-FRET competitive displacement); type: binding; conditions: averaged IC50; TR-FRET tracer displacement, 60 min
Counter-ions that a name gives are not always drawn.
Rule for this label: 1 means IC50 is less than 5 nM; 0 means IC50 is at least 5 nM.

COMPOUND	LABEL_VALUE
Cn1cnc2ccc(Nc3c(F)ccc(NS(=O)(=O)N4CC(F)(F)C4)c3Cl)c(F)c2c1=O [Example 136]	0
Cn1cnc2ccc(Nc3c(F)ccc(NS(=O)(=O)N4C[C@@H](F)[C@@H](F)C4)c3Cl)c(Cl)c2c1=O [Example 22]	1
Cc1c(Nc2c(F)ccc(NS(=O)(=O)N3CCC3)c2Cl)ccc2ncn(C)c(=O)c12 [Example 124, trifluoroacetate]	0
Cc1c(Nc2c(F)ccc(NS(=O)(=O)N3CC4CC4(C)C3)c2Cl)ccc2ncn(C)c(=O)c12 (stereo not drawn) [Example 88]	0
Cn1cnc2ccc(Oc3c(F)ccc(NS(=O)(=O)N4CC[C@@H](F)C4)c3Cl)c(F)c2c1=O [Example 20]	1
CCN(C)S(=O)(=O)Nc1ccc(F)c(Nc2ccc3ncn(C)c(=O)c3c2F)c1Cl [Example 4]	0
Cn1cnc2ccc(Nc3c(F)ccc(NS(=O)(=O)N4CC(COC(F)F)C4)c3Cl)c(F)c2c1=O [Example 139, trifluoroacetate]	1
Cn1cnc2ccc(Nc3c(F)ccc(NS(=O)(=O)N4CC[C@@H](F)C4)c3Cl)c(Br)c2c1=O [Example 24, trifluoroacetate]	1
CO[C@@H]1CCN(S(=O)(=O)Nc2ccc(F)c(Nc3ccc4ncn(C)c(=O)c4c3C)c2Cl)C1 [Example 1]	0
CCN(C)S(=O)(=O)Nc1ccc(F)c(Nc2ccc3ncn(C)c(=O)c3c2Cl)c1Cl [Example 2]	0
Cc1c(Nc2c(F)ccc(NS(=O)(=O)N3CCOCC3)c2Cl)ccc2ncn(C)c(=O)c12 [Example 79]	0
Cc1c(Nc2c(F)ccc(NS(=O)(=O)N3CC4CCC3C4)c2Cl)ccc2ncn(C)c(=O)c12 (stereo not drawn) [Example 81, trifluoroacetate]	0
Cn1cnc2ccc(Nc3c(F)ccc(NS(=O)(=O)N4CC5CC5C4)c3Cl)c(Cl)c2c1=O (stereo not drawn) [Example 17]	1
